Cited source: paper PMC8809517

Biological target: T1, GFP-9S library array, motif 4 ND N98P;D124G (synthetic construct, N98P;D124G)
T1 chain: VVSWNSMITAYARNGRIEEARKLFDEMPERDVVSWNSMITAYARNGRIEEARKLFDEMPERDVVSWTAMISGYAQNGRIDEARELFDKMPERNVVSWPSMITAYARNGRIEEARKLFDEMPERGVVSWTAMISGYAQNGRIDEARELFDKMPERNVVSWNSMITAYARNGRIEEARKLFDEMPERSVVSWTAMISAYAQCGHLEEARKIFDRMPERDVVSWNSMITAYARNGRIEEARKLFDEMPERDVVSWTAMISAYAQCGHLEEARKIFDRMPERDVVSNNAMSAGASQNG
Experiment: high-throughput RNA pulldown from lysate on Ni-NTA beads; HRP: 50 mM Tris pH 8, 150 mM NaCl, 1 mM beta-mercaptoethanol, 50 ug/ml BSA, 3 ug/ml yeast RNA, 0.5% heparin; ITC and FP: Tris pH 8, 200 mM KCl, 5% glycerol; MST: 50 mM Tris pH 8, 200 mM NaCl, 1 mM DTT, BSA, heparin, 0.05% Tween 20
Conditions: tags: N-terminal His-eGFP; label: 5' IRDye 800CW
The following binders are listed with their measured Kd values.
observation_type: Kd (nM)

- binder: "AUUAUACGUGA (ssRNA) [IR-rpoA-U]"
  observation_type: "Kd"
  units_label: "nM"
  value: 778
- binder: "AUUAAACGUGA (ssRNA) [IR-rpoA-A]"
  observation_type: "Kd"
  units_label: "nM"
  value: 735
